B1: Homeobox protein cut-like 1, residues 548 to 629; numbered along this chain, P39880 (parent)
chain: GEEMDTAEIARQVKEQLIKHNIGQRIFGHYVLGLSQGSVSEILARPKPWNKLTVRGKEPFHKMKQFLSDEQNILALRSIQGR

variants of: B1; assay: abundance fitness (aPCA) (normalised: wild type 0, dead -1); higher = more abundant; growth selection in yeast, the domain comes from the species named; details: Homo sapiens
Grouping by measured abundance fitness is done with the following cut points: low interval (below -0.4), middle interval (-0.4 to below -0.2), high interval (-0.2 or more)

Q: Category of `P48G` , please.
Ans: low interval

Q: Category of `E8I` , please.
Ans: middle interval

Q: Category of `G81V` , please.
Ans: high interval

Q: Category of `T6W` , please.
Ans: low interval

Q: Category of `E2H` , please.
Ans: middle interval

Q: Category of `F60C` , please.
Ans: low interval

Q: Category of `Q80C` , please.
Ans: high interval

Q: Category of `I26K` , please.
Ans: high interval

Q: Category of `G81A` , please.
Ans: high interval

Q: Category of `S40T` , please.
Ans: high interval

Q: Category of `E70W` , please.
Ans: middle interval

Q: Category of `K64S` , please.
Ans: high interval

Q: Category of `F60T` , please.
Ans: low interval

Q: Category of `R25N` , please.
Ans: high interval

Q: Category of `D69L` , please.
Ans: middle interval

Q: Category of `E15F` , please.
Ans: middle interval

Q: Category of `T6D` , please.
Ans: low interval

Q: Category of `V13L` , please.
Ans: low interval

Q: Category of `S38P` , please.
Ans: high interval

Q: Category of `L43S` , please.
Ans: low interval

Q: Category of `S35I` , please.
Ans: middle interval

Q: Category of `V13E` , please.
Ans: low interval
